- System: surface-bound aminopeptidases of KB3.1 cells
- test-name: Inhibition of ʟ-Leu-AMC hydrolysis (leucine aminopeptidases)
- Assay type: cell-based
- run-parameters: ʟ-Leu-AMC (100 µM), KB3.1 cells
quantity-kind: IC50, inhibition of ʟ-Leu-AMC hydrolysis (µg/mL)

• CC1=C(CCCCCCCCCCCCCCCCCC/C=C(\CC(=O)O)C(=O)O)C(=O)OC1=O = 130.4

a = CC(C)C[C@H](NC(=O)[C@@H](O)[C@H](N)Cc1ccccc1)C(=O)O [Bestatin, reference compound]
b = CC1=C(CCCCCCCCCCCCCCCCCCC(C(=O)O)C(CC(=O)O)C(=O)O)C(=O)OC1=O (stereo not shown)
c = CC1=C(CCCCCCCCCCCCCCCCC/C=C(\C(=O)O)C(CC(=O)O)C(=O)O)C(=O)OC1=O (stereo not shown)
In this exercise, place the 3 molecules in ascending sequence of their recorded IC50, inhibition of ʟ-Leu-AMC hydrolysis. Reply: labels, ordered per the request.
a, c, b
